Form field: isoTOP-ABPP ratio (reactivity profile), Q9NYL2_C22 (one value per entry).
# system_tested: MLTK C22 (Q9NYL2) (Homo sapiens, UniProt Q9NYL2)
# Sequence (Q9NYL2 whole entry): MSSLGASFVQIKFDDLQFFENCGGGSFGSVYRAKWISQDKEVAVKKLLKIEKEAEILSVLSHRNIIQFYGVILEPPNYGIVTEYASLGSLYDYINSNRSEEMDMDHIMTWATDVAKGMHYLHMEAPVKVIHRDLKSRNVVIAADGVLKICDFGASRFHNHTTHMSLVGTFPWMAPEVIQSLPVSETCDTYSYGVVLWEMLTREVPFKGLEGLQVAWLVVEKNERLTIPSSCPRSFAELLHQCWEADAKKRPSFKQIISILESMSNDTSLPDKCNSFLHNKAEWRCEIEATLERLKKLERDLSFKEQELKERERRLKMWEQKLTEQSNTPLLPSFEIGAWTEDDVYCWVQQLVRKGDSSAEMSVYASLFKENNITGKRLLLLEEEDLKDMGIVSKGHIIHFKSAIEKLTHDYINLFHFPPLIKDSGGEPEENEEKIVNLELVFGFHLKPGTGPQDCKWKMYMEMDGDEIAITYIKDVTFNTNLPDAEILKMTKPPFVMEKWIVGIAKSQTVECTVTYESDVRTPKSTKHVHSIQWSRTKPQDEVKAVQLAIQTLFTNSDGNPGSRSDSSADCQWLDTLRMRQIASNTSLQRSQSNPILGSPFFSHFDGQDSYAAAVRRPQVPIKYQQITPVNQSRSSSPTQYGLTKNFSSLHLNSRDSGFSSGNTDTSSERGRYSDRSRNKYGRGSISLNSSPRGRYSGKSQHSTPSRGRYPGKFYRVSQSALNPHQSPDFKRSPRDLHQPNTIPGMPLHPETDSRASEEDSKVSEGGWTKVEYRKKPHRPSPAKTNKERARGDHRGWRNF
# experimental_details: Competitive isoTOP-ABPP, cell lysates
# Format: binding
# particulars: 500 μm in-vitro ramos_231
Simply state the number, no unit and no words.

Example cases with answers are listed next.
compound: N#C/C(=C\c1cc(C(F)(F)F)cc(C(F)(F)F)c1)C(N)=O [compound 23]
system_tested: MLTK C22 (Q9NYL2) (Homo sapiens, UniProt Q9NYL2)
measured_number: 1.4

compound: O=C(CCl)N1CCN(CC(=O)N2CCOCC2)CC1 [compound 29]
system_tested: MLTK C22 (Q9NYL2) (Homo sapiens, UniProt Q9NYL2)
measured_number: 1.2

Note to self: isoTOP-ABPP ratio (reactivity profile), Q9NYL2_C22 recorded for COc1ccccc1OCCNC(=O)CCl [compound 28] was 1.4

Note to self: isoTOP-ABPP ratio (reactivity profile), Q9NYL2_C22 recorded for CC(Cl)C(=O)Nc1cc(C(F)(F)F)cc(C(F)(F)F)c1 (centres unmarked) [compound 25] was 0.8

Note to self: isoTOP-ABPP ratio (reactivity profile), Q9NYL2_C22 recorded for CC(C)CCOCCNC(=O)CCl [compound 27] was 1.1

----------
# system_tested: cysteines in MDA-MB-231 and Ramos cells (Homo sapiens, UniProt P21980)
# experimental_details: Competitive isoTOP-ABPP in situ (fragment-treated cells)
# Assay type: cell-based
# particulars: 200 μM, insitu, 231
reported_metric: isoTOP-ABPP ratio P21980_C277
Simply state the number, no unit and no words.

Example cases with answers are listed next.
compound: O=C(CCl)NC(=O)NC12CC3CC(CC(C3)C1)C2
reported_metric: isoTOP-ABPP ratio P21980_C277
measured_number: 0.3

compound: C=CC(=O)Nc1cc(F)c(N2CCN(C(=O)OC(C)(C)C)CC2)c(F)c1
reported_metric: isoTOP-ABPP ratio P21980_C277
measured_number: 1.4

compound: O=C(CCl)NC12CC3CC(CC(C3)C1)C2
reported_metric: isoTOP-ABPP ratio P21980_C277
measured_number: 0.7

compound: CC(C)CCOCCNC(=O)CCl
reported_metric: isoTOP-ABPP ratio P21980_C277
measured_number: 0.6

compound: O=C(CCl)NCCc1c[nH]c2ccccc12
reported_metric: isoTOP-ABPP ratio P21980_C277
measured_number: 0.8

Note to self: isoTOP-ABPP ratio P21980_C277 recorded for CC1CCc2ccccc2N1C(=O)CCl (stereo not shown) was 1.1

Note to self: isoTOP-ABPP ratio P21980_C277 recorded for `O=C(CCl)N1CCN(S(=O)(=O)c2ccccc2F)CC1` was 0.6

Note to self: isoTOP-ABPP ratio P21980_C277 recorded for `O=C(CCl)Nc1cccc2ncccc12` was 1.0

Note to self: isoTOP-ABPP ratio P21980_C277 recorded for `Cc1ccc(C=C(C#N)C(=O)NCCN2CCOCC2)cc1` was 0.6

Note to self: isoTOP-ABPP ratio P21980_C277 recorded for `COc1ccccc1OCCNC(=O)CCl` was 0.4

----------
# system_tested: LRBA C1704 (P50851) (Homo sapiens)
# Sequence (P50851 whole entry): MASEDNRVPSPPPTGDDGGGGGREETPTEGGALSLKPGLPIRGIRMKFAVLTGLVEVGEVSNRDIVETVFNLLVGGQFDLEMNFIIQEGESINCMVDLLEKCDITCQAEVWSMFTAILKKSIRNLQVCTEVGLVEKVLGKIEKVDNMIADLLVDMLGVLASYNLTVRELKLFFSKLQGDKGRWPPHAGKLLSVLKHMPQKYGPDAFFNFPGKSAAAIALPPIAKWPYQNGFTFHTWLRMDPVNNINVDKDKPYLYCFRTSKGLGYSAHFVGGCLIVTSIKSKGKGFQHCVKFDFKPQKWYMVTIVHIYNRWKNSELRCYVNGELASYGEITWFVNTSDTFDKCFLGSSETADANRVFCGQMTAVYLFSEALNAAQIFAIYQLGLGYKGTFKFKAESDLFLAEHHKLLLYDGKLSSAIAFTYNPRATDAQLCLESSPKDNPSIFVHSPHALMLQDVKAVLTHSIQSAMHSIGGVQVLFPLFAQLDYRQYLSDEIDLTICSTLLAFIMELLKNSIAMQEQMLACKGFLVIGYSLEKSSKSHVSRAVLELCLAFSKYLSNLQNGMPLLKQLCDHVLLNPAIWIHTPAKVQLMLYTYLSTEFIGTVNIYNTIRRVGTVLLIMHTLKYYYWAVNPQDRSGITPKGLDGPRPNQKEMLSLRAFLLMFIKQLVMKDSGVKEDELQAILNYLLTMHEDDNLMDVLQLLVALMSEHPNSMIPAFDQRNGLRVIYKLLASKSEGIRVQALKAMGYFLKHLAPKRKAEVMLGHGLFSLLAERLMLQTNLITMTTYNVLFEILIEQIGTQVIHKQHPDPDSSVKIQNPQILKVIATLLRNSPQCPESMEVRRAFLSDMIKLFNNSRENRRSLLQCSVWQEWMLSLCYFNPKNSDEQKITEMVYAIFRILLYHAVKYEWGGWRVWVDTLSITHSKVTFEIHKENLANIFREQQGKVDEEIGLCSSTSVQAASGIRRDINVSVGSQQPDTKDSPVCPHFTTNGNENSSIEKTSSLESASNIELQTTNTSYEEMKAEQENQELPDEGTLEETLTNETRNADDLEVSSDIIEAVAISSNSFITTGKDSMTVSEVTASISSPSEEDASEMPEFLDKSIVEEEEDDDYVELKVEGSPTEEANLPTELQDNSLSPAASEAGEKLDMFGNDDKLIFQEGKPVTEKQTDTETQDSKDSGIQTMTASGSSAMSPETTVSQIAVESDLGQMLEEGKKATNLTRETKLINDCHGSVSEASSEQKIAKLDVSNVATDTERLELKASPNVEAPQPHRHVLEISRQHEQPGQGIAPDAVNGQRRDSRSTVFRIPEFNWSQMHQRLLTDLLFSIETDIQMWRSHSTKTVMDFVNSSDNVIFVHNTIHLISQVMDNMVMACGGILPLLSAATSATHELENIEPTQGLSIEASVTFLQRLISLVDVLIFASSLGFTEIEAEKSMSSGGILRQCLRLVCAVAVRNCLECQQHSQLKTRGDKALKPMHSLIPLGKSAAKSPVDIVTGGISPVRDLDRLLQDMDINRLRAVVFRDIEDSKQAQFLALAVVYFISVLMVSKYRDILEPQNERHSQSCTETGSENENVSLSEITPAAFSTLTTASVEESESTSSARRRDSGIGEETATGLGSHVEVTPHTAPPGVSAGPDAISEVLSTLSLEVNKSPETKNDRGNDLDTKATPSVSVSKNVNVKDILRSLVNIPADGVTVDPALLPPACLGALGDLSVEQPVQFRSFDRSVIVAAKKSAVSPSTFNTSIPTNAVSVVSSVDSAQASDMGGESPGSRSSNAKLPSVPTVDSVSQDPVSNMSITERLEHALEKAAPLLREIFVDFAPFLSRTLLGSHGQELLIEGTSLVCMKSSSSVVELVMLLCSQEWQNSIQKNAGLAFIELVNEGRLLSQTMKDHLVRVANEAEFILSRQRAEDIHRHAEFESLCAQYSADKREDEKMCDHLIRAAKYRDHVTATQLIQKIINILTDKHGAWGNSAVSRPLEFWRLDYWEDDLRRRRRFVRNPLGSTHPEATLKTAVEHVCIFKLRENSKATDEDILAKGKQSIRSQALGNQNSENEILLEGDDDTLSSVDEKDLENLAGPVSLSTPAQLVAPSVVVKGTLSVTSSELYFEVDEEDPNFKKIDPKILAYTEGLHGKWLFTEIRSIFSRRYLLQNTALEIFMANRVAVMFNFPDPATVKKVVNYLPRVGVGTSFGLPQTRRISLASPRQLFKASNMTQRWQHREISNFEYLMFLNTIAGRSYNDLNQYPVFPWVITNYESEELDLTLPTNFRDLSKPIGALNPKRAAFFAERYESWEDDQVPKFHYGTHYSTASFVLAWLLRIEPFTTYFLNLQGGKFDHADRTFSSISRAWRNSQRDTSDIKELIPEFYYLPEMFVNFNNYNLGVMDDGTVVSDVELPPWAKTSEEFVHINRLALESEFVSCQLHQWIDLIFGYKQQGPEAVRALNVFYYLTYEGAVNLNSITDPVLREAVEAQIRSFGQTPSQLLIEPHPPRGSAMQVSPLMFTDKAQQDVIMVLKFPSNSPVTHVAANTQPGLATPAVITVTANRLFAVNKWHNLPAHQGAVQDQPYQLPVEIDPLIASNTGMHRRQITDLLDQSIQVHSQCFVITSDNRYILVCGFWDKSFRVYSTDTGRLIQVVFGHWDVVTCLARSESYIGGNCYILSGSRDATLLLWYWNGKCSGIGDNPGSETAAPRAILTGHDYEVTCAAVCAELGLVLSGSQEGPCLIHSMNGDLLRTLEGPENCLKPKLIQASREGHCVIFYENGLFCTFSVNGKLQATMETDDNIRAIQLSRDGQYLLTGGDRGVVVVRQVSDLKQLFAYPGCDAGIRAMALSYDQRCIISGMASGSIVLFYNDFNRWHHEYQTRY
# experimental_details: Competitive isoTOP-ABPP, cell lysates
# Format: binding
# particulars: 500 μm in-vitro ramos
reported_metric: isoTOP-ABPP ratio (reactivity profile), P50851_C1704
Simply state the number, no unit and no words.

Note to self: isoTOP-ABPP ratio (reactivity profile), P50851_C1704 recorded for `O=C(CCl)NC12CC3CC(CC(C3)C1)C2` was 1.6

Note to self: isoTOP-ABPP ratio (reactivity profile), P50851_C1704 recorded for `C=CC(=O)N(Cc1cccnc1)c1ccc(Oc2ccccc2)c(C(F)(F)F)c1` was 1.9

Note to self: isoTOP-ABPP ratio (reactivity profile), P50851_C1704 recorded for `N#C/C(=C\c1cc(C(F)(F)F)cc(C(F)(F)F)c1)C(N)=O` was 3.4

Note to self: isoTOP-ABPP ratio (reactivity profile), P50851_C1704 recorded for `O=C(CCl)N1CCC(C(O)(c2ccccc2)c2ccccc2)CC1` was 1.7

Note to self: isoTOP-ABPP ratio (reactivity profile), P50851_C1704 recorded for CC(Br)C(=O)Nc1cc(C(F)(F)F)cc(C(F)(F)F)c1 (centres unmarked) was 1.3

----------
# system_tested: ACAT1 C413 (P24752) (Homo sapiens)
# Sequence (P24752 34-427): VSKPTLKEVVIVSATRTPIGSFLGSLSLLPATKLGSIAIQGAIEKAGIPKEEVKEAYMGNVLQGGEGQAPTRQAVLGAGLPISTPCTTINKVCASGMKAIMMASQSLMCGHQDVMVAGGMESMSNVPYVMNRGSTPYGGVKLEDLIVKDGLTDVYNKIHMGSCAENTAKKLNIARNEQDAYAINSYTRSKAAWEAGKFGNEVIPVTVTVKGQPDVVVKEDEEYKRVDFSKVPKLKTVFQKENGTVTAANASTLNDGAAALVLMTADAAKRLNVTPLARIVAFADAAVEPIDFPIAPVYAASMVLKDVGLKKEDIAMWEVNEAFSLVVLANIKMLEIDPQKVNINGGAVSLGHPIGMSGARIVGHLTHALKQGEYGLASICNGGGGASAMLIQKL
# experimental_details: Competitive isoTOP-ABPP, cell lysates
# Format: binding
# particulars: 500 μM, invitro, 231
Form field: isoTOP-ABPP ratio P24752_C413 (one value per entry).
Simply state the number, no unit and no words.

Example cases with answers are listed next.
smiles_repr: O=C(CCl)NC(=O)NC12CC3CC(CC(C3)C1)C2
reported_metric: isoTOP-ABPP ratio P24752_C413
measured_number: 1.5

smiles_repr: CNS(=O)(=O)C=Cc1ccc2c(ccn2Cc2ccccc2)c1
reported_metric: isoTOP-ABPP ratio P24752_C413
measured_number: 1.1

smiles_repr: C=CC(=O)N(c1ccccc1)c1ccc(Br)cc1
reported_metric: isoTOP-ABPP ratio P24752_C413
measured_number: 1.3

smiles_repr: Cn1cc(S(=O)(=O)N2CCOCC2)cc1C(=O)NC(=O)CCl
reported_metric: isoTOP-ABPP ratio P24752_C413
measured_number: 1.9

smiles_repr: O=C(CCl)N1CCN(S(=O)(=O)c2ccccc2F)CC1
reported_metric: isoTOP-ABPP ratio P24752_C413
measured_number: 13.0

smiles_repr: C=CC(=O)N(Cc1cccnc1)c1ccc(Oc2ccccc2)c(C(F)(F)F)c1
reported_metric: isoTOP-ABPP ratio P24752_C413
measured_number: 1.2

Please find the next compound below.
Note to self: isoTOP-ABPP ratio P24752_C413 recorded for `O=C(CCl)NCCc1c[nH]c2ccccc12` was 5.5

----------
# system_tested: cysteines in MDA-MB-231 and Ramos cells (Homo sapiens)
# experimental_details: Competitive isoTOP-ABPP in situ (fragment-treated cells)
# Assay type: cell-based
# particulars: 200 μM, insitu, 231
Just a reminder that ties go to class 0: only isoTOP-ABPP ratio P30101_C57 strictly below 1 counts as class 1.

molecule: O=C(CCl)NC(=O)NC12CC3CC(CC(C3)C1)C2
class: class 0
--
molecule: CC1CCc2ccccc2N1C(=O)CCl (stereo not drawn)
class: class 0
--
molecule: Cc1ccc(C=C(C#N)C(=O)NCCN2CCOCC2)cc1
class: class 0
--
molecule: COc1ccccc1OCCNC(=O)CCl
class: class 0
--
molecule: C=CC(=O)Nc1cc(F)c(N2CCN(C(=O)OC(C)(C)C)CC2)c(F)c1
class: class 1
--
molecule: C=CC(=O)N(Cc1cccnc1)c1cc(C(F)(F)F)cc(C(F)(F)F)c1
class: class 1
--
molecule: CC(C)CCOCCNC(=O)CCl
class: class 0

(Q) I'd appreciate it if you could check whether `O=C(CCl)N1CCN(S(=O)(=O)c2ccccc2F)CC1` has isoTOP-ABPP ratio P30101_C57 smaller than 1.
(A) class 0

----------
# system_tested: ZNF217 C286 (O75362) (Homo sapiens)
# Sequence (O75362 whole entry): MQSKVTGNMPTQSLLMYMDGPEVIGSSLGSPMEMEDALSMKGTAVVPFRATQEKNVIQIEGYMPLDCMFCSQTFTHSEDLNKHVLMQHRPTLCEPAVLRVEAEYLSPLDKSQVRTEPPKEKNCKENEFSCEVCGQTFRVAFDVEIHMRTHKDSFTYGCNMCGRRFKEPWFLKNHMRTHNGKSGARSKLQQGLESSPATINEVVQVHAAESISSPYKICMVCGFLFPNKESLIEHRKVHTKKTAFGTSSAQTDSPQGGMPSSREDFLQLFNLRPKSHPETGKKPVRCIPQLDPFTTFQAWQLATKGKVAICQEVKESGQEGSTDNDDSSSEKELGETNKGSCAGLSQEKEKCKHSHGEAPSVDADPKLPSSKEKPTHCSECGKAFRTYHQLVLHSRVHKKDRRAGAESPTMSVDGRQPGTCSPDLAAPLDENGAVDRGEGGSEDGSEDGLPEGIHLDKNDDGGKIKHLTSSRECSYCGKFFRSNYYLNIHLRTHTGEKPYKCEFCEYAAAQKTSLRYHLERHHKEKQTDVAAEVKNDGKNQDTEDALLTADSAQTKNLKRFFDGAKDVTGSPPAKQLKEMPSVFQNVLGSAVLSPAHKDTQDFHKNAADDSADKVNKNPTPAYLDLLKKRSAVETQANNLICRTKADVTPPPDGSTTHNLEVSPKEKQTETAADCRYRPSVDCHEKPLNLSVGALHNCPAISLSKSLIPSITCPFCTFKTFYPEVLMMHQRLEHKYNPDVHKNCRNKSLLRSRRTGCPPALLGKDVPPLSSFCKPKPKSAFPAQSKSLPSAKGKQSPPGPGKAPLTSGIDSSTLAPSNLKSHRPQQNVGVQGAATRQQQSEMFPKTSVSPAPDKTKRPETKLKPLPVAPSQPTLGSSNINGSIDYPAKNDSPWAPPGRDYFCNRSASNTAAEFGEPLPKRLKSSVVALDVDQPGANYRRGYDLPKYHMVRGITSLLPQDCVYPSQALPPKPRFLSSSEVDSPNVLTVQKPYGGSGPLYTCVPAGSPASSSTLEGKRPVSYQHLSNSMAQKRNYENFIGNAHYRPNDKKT
# experimental_details: Competitive isoTOP-ABPP, cell lysates
# Format: binding
# particulars: 500 μm, in-vitro_ramos_231
Just a reminder that ties go to FALSE: only isoTOP-ABPP reactivity profile ratio, O75362_C286 strictly below 1 counts as TRUE.

Would you please look over these solved cases?
compound: C=CC(=O)N(c1ccccc1)C1CCCCC1
class: TRUE

compound: O=C(CCl)Nc1cccc2ncccc12
class: TRUE

compound: CC1CCc2ccccc2N1C(=O)CCl (stereo not shown)
class: FALSE

(Q) I'd appreciate it if you could check whether `COc1cc(NC(=O)CCl)cc(OC)c1` has isoTOP-ABPP reactivity profile ratio, O75362_C286 smaller than 1.
(A) FALSE

(Q) I'd appreciate it if you could check whether `C=CC(=O)N1CCC(Cc2ccccc2)CC1` has isoTOP-ABPP reactivity profile ratio, O75362_C286 smaller than 1.
(A) FALSE

Data provenance is patent US10670605B2.
